# measurement.target: Golgi-associated PDZ and coiled-coil motif-containing protein (Homo sapiens) (UniProt Q9HD26)
# experiment: untagged CAL PDZ binding inhibitors, primary screen, biochemical, fluorescence polarization, HTS (AID 602252);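 also: 0% = DMSO neutral control and 100% = excess unlabeled competitor peptide PRC23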
# conditions.used: purified CAL PDZ, TMR-peptide fluorescence polarization, 1 h; at 24.9 µM; hits give high values
Hit rate of the full screen: of about 300,000 compounds, about 2,700 (0.9%) were called active. This is one part of a sample in which actives are shown more often than they occur.
property.name: inhibition (%)
Write the value in % as a bare number.

{"columns": ["molecule", "u", "measurement"],
 "data": [
  ["COc1cccc(-n2c(SCC(=O)NC3CCS(=O)(=O)C3)nc3ccccc3c2=O)c1 (stereo not drawn)", "%", -4.98],
  ["CC(C)/C=N/NC(=O)c1cc(Br)ccc1O", "%", -1.22]
]}

Alright, here's another molecule for you.
Identify measured inhibition associated with `O=C(NC(=S)Nc1ccc(NC(=O)c2cccs2)cc1)c1ccc([N+](=O)[O-])cc1`
-2.58

====

# measurement.target: Golgi-associated PDZ and coiled-coil motif-containing protein (Homo sapiens) (UniProt Q9HD26)
# experiment: untagged CAL PDZ binding inhibitors, primary screen, biochemical, fluorescence polarization, HTS (AID 602252);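 also: 0% = DMSO neutral control and 100% = excess unlabeled competitor peptide PRC23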
# conditions.used: purified CAL PDZ, TMR-peptide fluorescence polarization, 1 h; at 24.9 µM; hits give high values
Screen size: about 300,000 compounds; about 2,700 (0.9%) were called active. This excerpt belongs to a sample that is enriched for actives.
# inhibition annotations
The response must be a number in % with no trailing unit.

{"columns": ["compound", "inhibition (%)"],
 "data": [
  ["Cc1ccc(S(=O)(=O)NCCC(=O)NCc2ccc(Cl)cc2)cc1C", 66.1],
  ["C=CCn1c(SCc2ccccc2)nc2c1c(=O)[nH]c(=O)n2C", -10.1],
  ["Oc1ccc(/C=N/Nc2nc(-c3ccccc3F)nc3ccccc23)c(O)c1", 4.73],
  ["O=Cc1ccc(Oc2cccc(C(F)(F)F)c2)nc1", 2.04],
  ["Cc1ccc(N=Cc2c(O)cc(C)oc2=O)c(C)c1", -1.38]
]}

Look up and state reported inhibition for `COc1ccccc1-c1nnc2n1N=C(c1ccc(OC(F)F)c(OCC3CC3)c1)CS2`
-1.27

Tell me measured inhibition for COc1ccccc1NC1=NC(c2ccc(Cl)cc2)N=C(N)N1 (stereo not drawn) please.
2.25

In one line, give reported inhibition of the entry `O=C(NCCc1ccccc1)c1cccc(NC(=O)c2ccccc2)c1` .
-3.44

====

# measurement.target: Golgi-associated PDZ and coiled-coil motif-containing protein (Homo sapiens) (UniProt Q9HD26)
# experiment: untagged CAL PDZ binding inhibitors, primary screen, biochemical, fluorescence polarization, HTS (AID 602252);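 also: 0% = DMSO neutral control and 100% = excess unlabeled competitor peptide PRC23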
# conditions.used: purified CAL PDZ, TMR-peptide fluorescence polarization, 1 h; at 24.9 µM; hits give high values
Among all 300,000 compounds or so, about 2,700 (0.9%) were called active. Only a selection was taken, and actives are over-represented in it overall.
# Lookup of reported inhibition keyed by entry
Your answer should be a plain number; it is taken to be in %.

The following compounds have reported results that may help.
{"columns": ["compound", "u", "measurement"],
 "data": [
  ["COc1cccc(NC(=O)c2ccccc2N(Cc2ccccc2)S(C)(=O)=O)c1", "%", 44.6],
  ["COc1ccccc1-c1sc2ccccc2c1C#CC1(O)CCCCC1", "%", 0.068],
  ["CCC(CO)Oc1cc(NCc2ccccc2)c2ncn(C3CCCC3)c2c1 (stereo not given)", "%", 2.05],
  ["COc1ccc(-c2c(-c3cc(OC)cc(OC)c3)n(C)c3ccc(-c4ccn[nH]4)cc23)cc1", "%", -3.15],
  ["COc1ccc(-c2nc3cc(C)ccn3c2NC2CCCCC2)cc1SC1CCCCC1", "%", -0.092],
  ["Fc1ccc(NC(=S)N2CCc3[nH]c4ccccc4c3C2)cc1", "%", 0.223]
]}

State its inhibition for this compound: `NC(=S)N/N=C/c1ccc([N+](=O)[O-])cc1`
1.65

Read the entry `O=C(Nc1cc(S(=O)(=O)Nc2ccc(Cl)cc2)ccc1O)c1ccc(F)cc1F` and write its reported inhibition.
-2.45

For the compound `CC(=O)Oc1ccc(OC(C)=O)c2c1C1C=CC2CC1` , report inhibition.
3.2

Indicate the recorded inhibition value for this compound: `Cc1[nH]n(-c2ccc([N+](=O)[O-])cc2)c(=O)c1C=NCCN1CCN(C(=O)c2ccccc2F)CC1`
51.8

Give me measured inhibition, please, for this compound: `Cc1cc(S(=O)(=O)NCc2ccccn2)c(Cl)cc1Cl`
-2.31

====

# measurement.target: Golgi-associated PDZ and coiled-coil motif-containing protein (Homo sapiens)
# experiment: untagged CAL PDZ binding inhibitors, primary screen, biochemical, fluorescence polarization, HTS (AID 602252);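 also: 0% = DMSO neutral control and 100% = excess unlabeled competitor peptide PRC23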
# conditions.used: purified CAL PDZ, TMR-peptide fluorescence polarization, 1 h; at 24.9 µM
Out of some 300,000 compounds screened, about 2,700 (0.9%) were called active.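 Rule for the calls: active = mean inhibition of at least 30% with at least half of replicates also reaching 30%; inconclusive = no clear call, values can overlap the other calls; inactive = the rest.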 Only a selection was taken, and actives are over-represented in it overall.
Reply using exactly one outcome from active, inactive

{"columns": ["compound", "classification"],
 "data": [
  ["COc1ccc(CNC(=O)C2CCN(S(=O)(=O)N3CCOCC3)CC2)cc1", "inactive"]
]}

For `COc1ccccc1CNC(=O)C1CCN(S(=O)(=O)c2ccc3c(c2)OCCO3)CC1` , what call appears in the results of this test?
active

I would be grateful if you could indicate the recorded call for `O=C(C1CCN(Cc2ccc(Cl)cc2)CC1)N1CCN(Cc2ccc3c(c2)OCO3)CC1` .
inactive

Check the results log: what was the call for `CC(C)C[C@H]1CN([C@@H](CC(C)C)CN2CCC[C@@H]2CN2C(=O)C(=O)NC[C@@H]2Cc2ccccc2)C(=O)C(=O)N1CCc1ccccc1` ?
inactive

Would you mind telling me which call this test gave `CCc1cccc(C)c1NC(=O)COC(=O)CC1CCCC1` ?
active

Identify the outcome logged in this assay for the compound shown: CCCCCC1CC(COc2ccccc2)OC1=O (centres undefined)
inactive

Per the records of this test, what outcome belongs to O=C1NC(c2ccccc2)Cc2ccncc21 (centres undefined) ?
inactive

====

# measurement.target: Golgi-associated PDZ and coiled-coil motif-containing protein (Homo sapiens)
# experiment: untagged CAL PDZ binding inhibitors, primary screen, biochemical, fluorescence polarization, HTS (AID 602252);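 also: 0% = DMSO neutral control and 100% = excess unlabeled competitor peptide PRC23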
# conditions.used: purified CAL PDZ, TMR-peptide fluorescence polarization, 1 h; at 24.9 µM; hits give high values
In all, about 300,000 compounds went through this assay and about 2,700 (0.9%) were called active. For the sample, actives were picked, then their nearest neighbours and some compounds at random.
inhibition values, listed per item
Kindly answer with a numeric value in %, unit omitted.

Solved entries:
{"columns": ["molecule", "inhibition / %"],
 "data": [
  ["CSCCC(NS(=O)(=O)c1ccc(C)cc1)C(=O)N(C)CC(=O)Nc1ccccc1Br (stereo not given)", 0.255],
  ["O=C(Nc1nnc(SCc2c(Cl)cccc2Cl)s1)c1cccc([N+](=O)[O-])c1", 76.9],
  ["CC(C)NC(=O)Nc1cccc2c1O[C@@H](CN(C)S(=O)(=O)c1ccc(F)cc1)[C@@H](C)CN([C@H](C)CO)C2=O", -0.185],
  ["COc1ccc(CNC(=O)C[C@H]2C[C@H](C(=O)N3CCOCC3)[C@@]3(CCC4CCCC4)c4[nH]c5ccc(Cl)cc5c4CCN3C2=O)cc1OC", -0.587],
  ["O=[N+]([O-])c1cc(S(=O)(=O)NCCc2ccccn2)ccc1Cl", 40.3]
]}

Kindly review the next molecule as well.
Enter inhibition (test system Golgi-associated PDZ and coiled-coil motif-containing protein (Homo sapiens)) for Cc1ccc(C(=O)NCC(c2cccs2)N(C)C)cc1S(=O)(=O)N1CCOCC1 (stereo not given)
47.1

====

# measurement.target: Golgi-associated PDZ and coiled-coil motif-containing protein (Homo sapiens) (UniProt Q9HD26)
# experiment: untagged CAL PDZ binding inhibitors, primary screen, biochemical, fluorescence polarization, HTS (AID 602252);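 also: 0% = DMSO neutral control and 100% = excess unlabeled competitor peptide PRC23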
# conditions.used: purified CAL PDZ, TMR-peptide fluorescence polarization, 1 h; at 24.9 µM; hits give high values
Screen size: about 300,000 compounds; about 2,700 (0.9%) were called active. The full list was thinned out, with actives kept by preference.
Item-by-item account of inhibition
All answers are understood in %, so give the number only.

# count of solved cases: 8
{"columns": ["compound", "measurement"],
 "data": [
  ["COc1cc(OC)cc(-c2sc3ccc(OC)cc3c2-c2ccc3cc[nH]c3c2)c1", -4.97],
  ["CC1Cc2ccccc2N1S(=O)(=O)c1cccc(C(=O)NCC(c2ccco2)N2CCCC2)c1 (centres undefined)", 1.18],
  ["CN(Cc1ccccn1)Cc1nc(-c2ccc(Cl)cc2)no1", -1.29],
  ["O=C(CNC(=O)c1ccc(F)cc1)c1ccccc1", -6.34],
  ["Cc1cccc(C(=O)N[C@H](C(=O)NCc2cccs2)C(C)C)c1", -0.924],
  ["COc1ccc(Nc2ncnc3ccc(Br)cc23)c(OC)c1", -10.3],
  ["COc1ccc(S(=O)(=O)N2CCc3ccccc32)cc1C(=O)Nc1cc(S(C)(=O)=O)ccc1Cl", -5.31],
  ["COc1cccc(/C=C2\\SC(=N)N(c3ccc(F)cc3)C2=O)c1", 161]
]}

Identify measured inhibition associated with `O=C(Nc1c(Br)cc2c(c1Br)Cc1ccccc1-2)C(F)(F)F`
-4.34

Origin of values: PubChem BioAssay AID602252
